System: CP185
Assay: qHTS profiling for inhibitors of Plasmodium falciparum proliferation (AID 504749); note: nearly all actives have a fitted effect of over 60% in size
Settings: P. falciparum in erythrocytes, SYBR Green DNA, 72 h; series mostly up to 28.7 µM
Inconclusive results are not listed. Active and inactive are the calls of the source. Calls come from the whole dose curve; as a rule, active = well fitted inhibition curve with a large enough effect; inconclusive = small, poorly fitted or top-dose-only effect; inactive = flat fitted curve, though single readings scatter.
Choose the fitting class; nothing outside TRUE = active, FALSE = inactive is accepted.

Example cases with answers are listed next.
{"compound": "c1ccc2c(c1)OCC(CN1CCCCC1)O2 (stereo unspecified)", "assigned class": "FALSE"}
{"compound": "CCC(C)[C@@H](N)C(=O)O (stereo partly specified)", "assigned class": "FALSE"}

Exercise: GET /call?item= O=S(=O)(O)CC(S)CS (stereo unspecified) returns the recorded outcome of this test.
Solution: FALSE

Exercise: What classification did `O=C1NCCN1c1ncc([N+](=O)[O-])s1` end up with in this test?
Solution: FALSE

Exercise: Give the logged outcome of this assay for the following compound: `NCC[C@H](O)C(=O)N[C@@H]1C[C@H](N)[C@@H](O[C@H]2O[C@H](CN)[C@@H](O)[C@H](O)[C@H]2O)[C@H](O)[C@H]1O[C@H]1O[C@H](CO)[C@@H](O)[C@H](N)[C@H]1O`
Solution: FALSE

Exercise: I would be grateful if you could indicate the recorded call for `C[C@H](O)CN(C)C` .
Solution: FALSE

Exercise: Recorded test outcome, item `CC(C)[C@@H](N)C(=O)O`
Solution: FALSE

Exercise: Which outcome was entered for the compound `C(=C\c1ccncc1)/c1ccccc1` in this test?
Solution: FALSE

Exercise: What is the recorded call for this compound in the test? CC1CC(OC(=O)C(O)c2ccccc2)CC(C)(C)C1 (stereo unspecified)
Solution: FALSE

Exercise: # lookup: test call for CC1(O)CCC(C(C)(C)O)CC1 (stereo unspecified)
Solution: FALSE

Exercise: State the result this test recorded for `O=C(O)C1=C(CSc2nnnn2CS(=O)(=O)O)CS[C@@H]2[C@H](NC(=O)[C@H](O)c3ccccc3)C(=O)N12` .
Solution: FALSE

###

Test: Drug repurposing screens with cells derived from glioblastoma tumor samples (AID 1345199); note: nearly all actives have a fitted effect of over 40% in size
Conditions: GBM patient neurospheres viability, ATP luminescence, 48 h; at 46.1 µM (top of the series); tumour line C
Records with an inconclusive call do not appear. Where a SMILES comes first, the peptide text is derived from it. Bridges are numbered along the chain shown (N, C = ends). [ ]: non-standard residue; d: D form. The star is where a group is joined. X1 = CC[C@@H](C)[C@@H](N)C1=N[C@H](C(=O)*)CS1; d(aIle) = CC[C@H](C)[C@@H](N)C(=O)O; dOrn = NCCC[C@@H](N)C(=O)O
Each record's activity, negative = cell killing is compared with low range: < -20%; mid range: ≥ -20% and < -10%; high range: ≥ -10% to give its class.

Would you please look over these solved cases?
{"compound": "CNC(=O)C[C@@H](N)C(=O)N[C@@H](C(=O)N[C@@H]1C(=O)N2[C@@H]1SC(C)(C)[C@@H]2C(=O)O)c1ccc(O)cc1", "assigned class": "mid range"}
{"compound": "CC(C)C1=CC2=CC[C@@H]3[C@](C)(CCC[C@@]3(C)C(=O)O)[C@H]2CC1", "assigned class": "high range"}
{"compound": "COc1ccc(C(=O)CCC(=O)O)c2ccccc12", "assigned class": "low range"}
{"compound": "CCCCCCCCCCCCCCCCCC[N+](C)(C)CCC[Si](OC)(OC)OC", "assigned class": "high range"}

Exercise: Could you place `O=C(O)[C@H]1C(=CCO)O[C@H]2CC(=O)N12` in its proper category? Many thanks.
Solution: mid range

Exercise: Assign a category based on measured activity, negative = cell killing for `Cc1ccc(S(=O)(=O)NCl)cc1` and give only the class name.
Solution: mid range

Exercise: The entry to classify is `S=C1SCN(Cc2ccccc2)CN1Cc1ccccc1` ; which class holds it?
Solution: high range

Exercise: The entry to classify is `O=[n+]1ccn([O-])c2ccccc21` ; which class holds it?
Solution: mid range

Exercise: Where would `COC(=O)c1ccccc1O` land among the classes by reported activity, negative = cell killing?
Solution: high range

Exercise: Assign a bin to `CC(C)(CO)[C@@H](O)C(=O)NCCC(=O)NCCSSCCNC(=O)CCNC(=O)[C@H](O)C(C)(C)CO`
Solution: mid range

Exercise: Please indicate the class for `CO/N=C(\C(=O)N[C@@H]1C(=O)N2C(C(=O)O)=CCS[C@H]12)c1csc(N)n1` based on its activity, negative = cell killing.
Solution: mid range

Exercise: Category lookup for the compound `CCCc1nc(C(C)(C)O)c(C(=O)OCc2oc(=O)oc2C)n1Cc1ccc(-c2ccccc2-c2nn[nH]n2)cc1`
Solution: mid range

Exercise: read the entry `FCOC(C(F)(F)F)C(F)(F)F` and state which class it falls under.
Solution: low range

Exercise: Sort `FC(F)(F)C(F)(F)C(F)(F)C(F)(F)C(F)(F)F` into one of the categories.
Solution: mid range

Exercise: GET /class?item= `C=CC[C@@H]1/C=C(\C)C[C@H](C)C[C@H](OC)[C@H]2O[C@@](O)(C(=O)C(=O)N3CCCC[C@H]3C(=O)O[C@H](/C(C)=C/[C@@H]3CC[C@@H](O)[C@H](OC)C3)[C@H](C)[C@@H](O)CC1=O)[C@H](C)C[C@@H]2OC`
Solution: mid range

Exercise: Please report the category associated with `CN1CCC(OC(=O)C(Oc2ccc(Cl)cc2)Oc2ccc(Cl)cc2)CC1` , nothing else.
Solution: low range

Exercise: Which bin, given its activity, negative = cell killing, does `C/C=C/C=C/C(=O)O` occupy?
Solution: high range

Exercise: Band of CC[C@@H](C)[C@@H](N)C1=N[C@H](C(=O)N[C@@H](CC(C)C)C(=O)N[C@@H](CCC(=O)O)C(=O)N[C@@H](C(=O)N[C@@H]2CCCCNC(=O)[C@@H](CC(N)=O)NC(=O)[C@@H](CC(=O)O)NC(=O)[C@@H](Cc3cnc[nH]3)NC(=O)[C@@H](Cc3ccccc3)NC(=O)[C@@H]([C@H](C)CC)NC(=O)[C@@H](CCCN)NC2=O)[C@@H](C)CC)CS1 (X1-LE[d(aIle)][dK][dOrn][dI][dF][dH][dD][dN]; lactam 4-C) ?
Solution: high range

Values were extracted from PubChem BioAssay (NCATS).
